Hello, the source for this data is ChEMBL document CHEMBL3988442, in case you need it.

Reported Percent Effect values are given for each entry in this list.
Biological target: Shiga toxin 2 (Escherichia coli O157:H7) (UniProt P09385+P09386)
Assay: E. coli 0.157:H7 Shiga Toxin SOP - stx2 screening assay
Assay type: functional
Set-up: scale not given: direction of the effect not stated beside the values
Settings: 30 µM
Expressed in %, but write only the number.

Below, 3 compounds whose answers are already recorded.
{"columns": ["compound", "tested-target", "unit-annotation", "Percent Effect"],
 "data": [
  ["CCCc1n[nH]c(C2CN(Cc3nnc(C4CC4)o3)CCO2)n1 (stereo not drawn)", "Shiga toxin 2 (Escherichia coli O157:H7) (UniProt P09385+P09386)", "%", -20.6],
  ["CC(C)Oc1ncc(C(=O)N2CCC(NC(=O)C3CC3)CC2)cc1Cl", "Shiga toxin 2 (Escherichia coli O157:H7) (UniProt P09385+P09386)", "%", -46.9],
  ["Cc1ccc2c(n1)N(CCn1cccn1)CCN(C(=O)NC1CC1)C2", "Shiga toxin 2 (Escherichia coli O157:H7) (UniProt P09385+P09386)", "%", 6.77]
]}

Reported Percent Effect for Shiga toxin 2 (Escherichia coli O157:H7) (UniProt P09385+P09386), given CC(C)CNC(=O)NC(=O)CNc1ccccc1SCC(C)C#N (stereo not drawn) ?
4.99

Form field: Percent Effect recorded for Cc1cc(C(=O)N2CCc3nnc(N)cc3C2)c(C)n1-c1cccnc1 with Shiga toxin 2 (Escherichia coli O157:H7) (UniProt P09385+P09386) (enter value)
-28.4

Item Cc1ccccc1Oc1ncccc1CNS(C)(=O)=O with Shiga toxin 2 (Escherichia coli O157:H7) (UniProt P09385+P09386) - Percent Effect?
-11.9

###

Target: Aspartate--tRNA(Asp/Asn) ligase (Mycobacterium tuberculosis (strain ATCC 25618 / H37Rv)) (UniProt P9WFW3); note: in the data most compounds retested in dose-response had high values
Sequence (whole entry): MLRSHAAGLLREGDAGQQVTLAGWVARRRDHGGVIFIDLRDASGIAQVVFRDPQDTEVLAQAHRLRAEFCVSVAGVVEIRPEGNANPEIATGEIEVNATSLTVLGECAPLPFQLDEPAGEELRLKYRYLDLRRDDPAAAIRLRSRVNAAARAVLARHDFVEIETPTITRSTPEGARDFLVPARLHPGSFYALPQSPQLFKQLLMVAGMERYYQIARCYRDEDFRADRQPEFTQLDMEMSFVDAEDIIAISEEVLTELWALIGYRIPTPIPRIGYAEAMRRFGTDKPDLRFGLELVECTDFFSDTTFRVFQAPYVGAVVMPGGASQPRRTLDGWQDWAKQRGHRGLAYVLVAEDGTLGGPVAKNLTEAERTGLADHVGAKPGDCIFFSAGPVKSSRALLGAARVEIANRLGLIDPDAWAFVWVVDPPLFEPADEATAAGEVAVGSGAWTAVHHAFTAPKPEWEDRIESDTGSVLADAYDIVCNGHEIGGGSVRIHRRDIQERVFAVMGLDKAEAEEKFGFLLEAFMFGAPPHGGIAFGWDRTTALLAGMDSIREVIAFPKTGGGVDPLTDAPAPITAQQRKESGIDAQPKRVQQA
Assay: Assay for Asp RNA synthetase-1 from Mycobacterium tuberculosis
Type: functional
Design: scale not given: direction of the effect not stated beside the values
Details: 30 µM
Below is a list of entries, each paired with its recorded Percent Effect value.
Numeric only. Scale: %

Please review the entries below; each comes with its answer.
{"columns": ["compound", "readout-value"],
 "data": [
  ["NC(=O)CCN1CCC(C(=O)c2cc(F)ccc2F)CC1", 0.12],
  ["CCNC(=O)N(C)C(c1cccc(F)c1)c1ccccn1 (stereo not drawn)", -4.31],
  ["COCCN1C[C@@H]2CN(Cc3ccsc3)CCC[C@]2(C(=O)O)C1", 2.26],
  ["CN(CCC#N)C(=O)CN1CCCC1c1ccsc1 (stereo not drawn)", 2.1],
  ["Cc1nc(CN(C)C(=O)Nc2cnn(CC3CCCO3)c2)cs1 (stereo not drawn)", 2.17],
  ["CC1CCc2nc(O)c(C(=O)NCCN(C)C)cc2C1 (stereo not drawn)", -0.552]
]}

Using the record for Cc1nn2cccnc2c1C(=O)N1CCCC(n2ccnc2)C1 (stereo not drawn) , report its Percent Effect.
6.28

# query: Percent Effect of entry CN(CCNC(=O)Nc1ccncc1)C1CCCCC1
1.25

For the compound Cn1c(CN2CCOC(c3nc(C(C)(C)C)n[nH]3)C2)nnc1C1CC1 (stereo not drawn) , what Percent Effect is on record?
-5.04

So what does the record say about Percent Effect for CC(=O)NCc1ccc(C(=O)N2CCCCC2Cn2cccn2)o1 (stereo not drawn) ?
0.175

Consider the compound shown here: CCOCCCC(=O)NCCC(=O)N1CCN(c2ccccn2)CC1 What is its recorded Percent Effect?
0.809

Suppose we examine the compound CS(=O)(=O)NCC1CCCN(Cc2ccc(F)c3cccnc23)C1 (stereo not drawn) ; what Percent Effect value has been reported?
5.29

Could you tell me which Percent Effect is on file for CCCn1nccc1C(=O)N1CCCN(CCCc2ccccc2)CC1 ?
-3.6

# query: Percent Effect of entry O=C(Nc1ccnc(OC2CCOC2)c1)C1CCC1 (stereo not drawn)
-4.32

State the recorded Percent Effect for this entry: CNC(=O)c1cc(S(=O)(=O)C(C)C)cs1
-3.82

###

Molecular target: Shiga toxin 2 (Escherichia coli O157:H7) (UniProt P09385+P09386)
Test: E. coli 0.157:H7 Shiga Toxin SOP - stx2 screening assay
Type: functional
Design: scale not given: direction of the effect not stated beside the values
Conditions: 30 µM
// classify: if (Percent Effect < -10%) 1 else -1

{"columns": ["compound", "tested-target", "class-label"],
 "data": [
  ["CCS(=O)(=O)N1CCc2c(cccc2NC(=O)NCCOC)C1", "Shiga toxin 2 (Escherichia coli O157:H7) (UniProt P09385+P09386)", -1]
]}

Determine whether this compound shows Percent Effect lower than -10% (ties excluded): COCCN1CCC(CNC(=O)C2(c3cc(C)cc(C)c3)CCC2)C1 (centres undefined)
-1

Please state whether Percent Effect is below -10% for COc1ncccc1NC(=O)NCC(O)c1ccc(F)cc1F (centres undefined)
-1

Problem: For the compound CNS(=O)(=O)c1cccc(CNc2cc(C(F)(F)F)ccn2)c1 , is Percent Effect under -10%?
-1

###

Target: Aspartate--tRNA(Asp/Asn) ligase (Mycobacterium tuberculosis (strain ATCC 25618 / H37Rv)); note: in the data most compounds retested in dose-response had high values
Sequence (whole entry): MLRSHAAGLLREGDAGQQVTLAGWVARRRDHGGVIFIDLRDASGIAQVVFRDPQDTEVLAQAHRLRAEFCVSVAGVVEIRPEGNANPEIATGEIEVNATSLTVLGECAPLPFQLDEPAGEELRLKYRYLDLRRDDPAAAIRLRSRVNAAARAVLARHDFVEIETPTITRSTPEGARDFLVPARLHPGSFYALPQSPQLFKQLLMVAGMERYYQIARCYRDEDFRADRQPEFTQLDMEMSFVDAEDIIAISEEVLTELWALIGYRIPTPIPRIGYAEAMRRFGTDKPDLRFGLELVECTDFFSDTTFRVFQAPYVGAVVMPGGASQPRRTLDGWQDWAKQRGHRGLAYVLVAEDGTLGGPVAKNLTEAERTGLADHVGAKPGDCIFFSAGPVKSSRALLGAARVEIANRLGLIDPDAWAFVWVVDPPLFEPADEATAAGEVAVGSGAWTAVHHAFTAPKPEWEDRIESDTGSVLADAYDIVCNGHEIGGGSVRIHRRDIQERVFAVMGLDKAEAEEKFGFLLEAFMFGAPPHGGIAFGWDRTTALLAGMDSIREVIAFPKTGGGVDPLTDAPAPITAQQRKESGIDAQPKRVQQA
Assay: Assay for Asp RNA synthetase-1 from Mycobacterium tuberculosis
Format: functional
Set-up: scale not given: direction of the effect not stated beside the values
Conditions: 30 µM
Listing: Percent Effect of selected molecules
# unit: % | format: bare number

{"columns": ["molecule", "Percent Effect / %"],
 "data": [
  ["CN(C)CCCNC(=O)c1cc(Br)c2c(c1)OCCO2", 0.724],
  ["CN1CCC/C1=N\\S(=O)(=O)c1ccc(NC(=O)c2ccc(F)cc2)cc1", 4.61],
  ["CC(C)(C)c1nc(CN2CCC(c3nc4cc(Cl)ccc4o3)CC2)no1", -2.4],
  ["Cc1ccc(N2CCCN(C(=O)c3cc(Cl)c[nH]3)CC2)nn1", -1.03],
  ["O=C1CN(Cc2nnc(-c3ccc(Br)o3)o2)CCN1", -1.11]
]}

Please look up its Percent Effect: Cc1ccc(C(C)N(C)Cc2nc3c(cnn3C)c(=O)[nH]2)cc1 (stereo not drawn)
1.46

Quick one: Percent Effect for O=c1cc2c(nn1CN1CCN(c3ccccc3)CC1)CCC2 ?
6.3

Given the entry O=C1CSC(c2cccs2)c2cnn(C3CCCC3)c2N1 (stereo not drawn) , report its measured Percent Effect.
7.29

###

In this section, each of the molecules is paired with its reported Percent Effect.
Target: Shiga toxin 2 (Escherichia coli O157:H7) (UniProt P09385+P09386)
Assay: E. coli 0.157:H7 Shiga Toxin SOP - stx2 screening assay
Type: functional
Parameters: scale not given: direction of the effect not stated beside the values
Settings: 30 µM
Quick note: give the figure in %, leave out the unit.

Field request: Percent Effect | item: N#Cc1ncn(CC(=O)Nc2cc(Cl)ccc2F)n1
-46.7

Which Percent Effect is reported for this molecule? COCCN1C[C@@H](C)[C@@]2(COCCN(C(=O)c3cnc(C)cn3)C2)C1
-19.1

Any idea what its Percent Effect is? The molecule is Cc1nc(NCc2ccc(C)o2)cc(C(=O)N2CCOCC2)n1
-16.9

// returns reported Percent Effect for input Cc1ccc(C(=O)NS(=O)(=O)c2ccccc2C)c(=O)[nH]1
10.2

Item under review: Cc1ncc(CN(C)C2CCCN(Cc3noc(C4CC4)n3)C2)s1 (stereo unspecified) . Reported Percent Effect?
11.1

Which Percent Effect is listed for c1ccc(-c2ccc(C3CNCCO3)nc2)cc1 (stereo unspecified) ?
-59.5
